Assay: Serum stability study monitored by HPLC
Type: in vitro ADME, human
Details: human, human serum diluted in PBS, 9 h; replicate 1; human serum 50 uL in PBS 500 uL, 37 °C, HPLC 220 nm, caffeine internal standard; read-out: Normalised Linker % (peptide remaining)
Experimental: The stability of SP1 in human serum was investigated and compared to the stability of its linear precursor P1 and the parent PMI (Fig. 6). The stability of the peptides at 37 °C in human serum was monitored throughout 5 days by HPLC. Fig. 6 Stability of the precursor peptide P1, the parent PMI and SP1 in human serum at 37 °C, over 5 days, monitored by HPLC at 220 nm. […] 6.2 Serum Stability Studies […] Caffeine was used as an internal standard to enable quantification of degradation over time. […]
PARAMETER: remaining at 9 h, 175 µM

# SUBSTANCE, RESULT
records = [
    ("Ac-TSFAEYWNNLSP-NH2 [PMI, reference compound]", "23.2%"),
]

The reported numbers originate from paper PMC10763561.
